# Type: in vitro ADME, human
# Assay setup: storage at 4 °C, 50 nM, n = 4, up to 1 month; T90 extrapolated
Where no end group is shown, it is not given here.
Overview of reported T90 in days (±SEM) in P100 plasma across a group of substances:

Solved cases below.
1. SDLPFEH [Q164, SDLPFEH] | 0.95 (±0.23) days
2. SGSLSTFFRLFNRSFTQALGK [Q176] | 0.48 (±0.02) days
3. SNLVECVFSLFKKCN [Q076] | 1.24 (±0.03) days

Alright, here's another substance for you.
Field request: T90 in days (±SEM) in P100 plasma | item: SIFTLVA [Q184, SIFTLVA] 2.24 (±0.20) days
